All figures here come from patent US6653258B1.

system: foliar fungal diseases of plants; format: in vivo; set-up: key: 4: no disease; 3: trace −5% of disease on untreated plants; 6-25% of disease on untreated plants; 1: 26-59% of disease on untreated plants; 60-100% of disease on untreated plants; conditions: Cercospora arachidicola on peanut; applied to soil (roots) and foliage one or two days before inoculation
reported.endpoint: disease control grading, CERCOSPORA ARACHIDICOLA (PEANUT)

* CO/C=C(/C(=O)OC)c1ccccc1COc1cccc(/N=C/c2ccccc2)c1 | 4
* CO/C=C(/C(=O)OC)c1ccccc1COc1cccc(OCc2ccccc2)c1 | 4
* CO/C=C(/C(=O)OC)c1ccccc1COc1cccc(-c2cccc(OC)c2)c1 | 4
* CO/C=C(/C(=O)OC)c1ccccc1COc1cccc(F)c1 | 4
* CO/C=C(/C(=O)OC)c1ccccc1COc1cccc(I)c1 | 4
* CO/C=C(/C(=O)OC)c1ccccc1COc1ccc(C#N)cc1 | 4
